melting point listing for selected molecules.

CC1(C)CC(=O)C2=C(C1)OC(N)=C(C#N)C2c1ccc(F)cc1 (stereo not shown) ... 189 to 193 °C
CC1(C)CC(=O)C2=C(C1)OC(N)=C(C#N)C2c1ccncc1 (stereo not shown) ... 222 to 224 °C
CN(C)c1ccc(C2C(C#N)=C(N)OC3=C2C(=O)CC(C)(C)C3)cc1 (stereo not shown) ... 221 to 224 °C

Query: Suppose we examine the molecule COc1ccc(C2C(C#N)=C(N)OC3=C2C(=O)CCC3)cc1 (stereo not shown) ; what melting point value has been reported?
Reply: 209 to 212 °C

Query: Suppose we examine the molecule CC1(C)CC(=O)C2=C(C1)OC(N)=C(C#N)C2c1cccc(O)c1 (stereo not shown) ; what melting point value has been reported?
Reply: 214 to 217 °C

Query: Suppose we examine the molecule CC1(C)CC(=O)C2=C(C1)OC(N)=C(C#N)C2c1ccc(C#N)cc1 (stereo not shown) ; what melting point value has been reported?
Reply: 227 to 230 °C

Query: Suppose we examine the molecule CC1(C)CC(=O)C2=C(C1)OC(N)=C(C#N)C2c1ccc2ccccc2c1 (stereo not shown) ; what melting point value has been reported?
Reply: 259 to 262 °C

Every entry's value here was drawn from patent US6680332B1.
